Quantity Name: flash point (°C)
Answer in °C, number only, no unit symbol.

These recorded examples may help you get a feel for the data.
# Compound, Assay Result
records = [
    ("Nc1ccccn1", 92.00),
    ("COCCOC", 0.00),
    ("CNc1ccccc1C(=O)OC [methyl 2-(methylamino)benzoate]", 91.00),
]

**Query** Identify the reported flash point for the following entry. Sc1ccccc1
**Result** 53.00

**Query** Identify the reported flash point for the following entry. C1CCSC1
**Result** 13.00

**Query** Identify the reported flash point for the following entry. c1nc[nH]n1
**Result** 170.00

**Query** Identify the reported flash point for the following entry. CCCCCC(=O)O
**Result** 104.00

**Query** Identify the reported flash point for the following entry. CCOP(=S)(OCC)SCSC(C)(C)C
**Result** 88.00

**Query** Identify the reported flash point for the following entry. c1ccc(Oc2ccccc2)cc1
**Result** 115.00

**Query** Identify the reported flash point for the following entry. CCCCCCCCCCCCc1ccccc1S(=O)(=O)O
**Result** 149.00

**Query** Identify the reported flash point for the following entry. COC(C)(C)CCCC(C)C/C=C/C(C)=C/C(=O)OC(C)C (stereo not drawn)
**Result** 187.00

**Query** Identify the reported flash point for the following entry. CCCCCC(C)C
**Result** 4.00

**Query** Identify the reported flash point for the following entry. C=CC(C)(O)CCC=C(C)C (stereo not drawn)
**Result** 78.00

**Query** Identify the reported flash point for the following entry. C=C(C)C(=O)OCCOC(=O)C(=C)C [2-(2-methylprop-2-enoyloxy)ethyl 2-methylprop-2-enoate]
**Result** 101.00

**Query** Identify the reported flash point for the following entry. COc1ccc(C(C)=O)cc1
**Result** 138.00

**Query** Identify the reported flash point for the following entry. Cc1ccc2ccccc2n1
**Result** 79.00

**Query** Identify the reported flash point for the following entry. OCC=CCO
**Result** 128.00

**Query** Identify the reported flash point for the following entry. C=CCCCCC
**Result** -4.00

**Query** Identify the reported flash point for the following entry. CC(C)CCCCCCOC(=O)C1CCCCC1C(=O)OCCCCCCC(C)C (stereo not drawn) [bis(7-methyloctyl) cyclohexane-1,2-dicarboxylate]
**Result** 224.00

**Query** Identify the reported flash point for the following entry. C=CCC(C)C
**Result** -32.00

**Query** Identify the reported flash point for the following entry. ClCc1ccccc1
**Result** 67.00

**Query** Identify the reported flash point for the following entry. CC(=O)CC(C)(C)O [4-hydroxy-4-methylpentan-2-one]
**Result** 52.00

**Query** Identify the reported flash point for the following entry. OCCCl
**Result** 60.00

* * *

Documented flash point across a set of compounds
Answer in °C, number only, no unit symbol.

These recorded examples may help you get a feel for the data.
# Smiles Representation, Quantity Name, Assay Result
records = [
    ("C[SiH](C)O[Si](O[SiH](C)C)(O[SiH](C)C)O[SiH](C)C", "flash point", 67.00),
    ("CCCCCCCC[Si](OCC)(OCC)OCC", "flash point", 100.00),
    ("C[Si](C)(C)N1CCOCC1", "flash point", 27.00),
    ("CCCCCC[Si](C)(Cl)Cl", "flash point", 85.00),
    ("Cl[Si](Cl)(Cl)C1CCCCC1", "flash point", 85.00),
]

**Query** Identify the reported flash point for the following entry. C[Si](C)(C)C1C=CC=C1
**Result** 29.00

**Query** Identify the reported flash point for the following entry. CO[Si](C)(CCCCl)OC
**Result** 45.00

**Query** Identify the reported flash point for the following entry. C[Si](C)(C)O[Si](C)(C)O[Si](C)(C)O[Si](C)(C)O[Si](C)(C)C
**Result** 79.00

**Query** Identify the reported flash point for the following entry. CCO[Si](CC)(CC)OCC
**Result** 43.00
